Test system: MOLT-4 leukemia
Test: NCI tumour cell line growth inhibition, 48 h
Record form. Attribute: TGI. Fill in for each entry.

O=C(O)c1cccc(CN2CCCCC2)c1	> 100 µM
COC(=O)[C@@H](NC1(c2ccccc2)c2ccccc2-c2ccccc21)[C@H](OC(=O)[C@H]1CCCN1S(=O)(=O)c1ccccc1)C(=O)OC	> 100 µM
CCOC(=O)C1C=C1C(C)(C)O (stereo unspecified)	> 10 µM

Please go through the list and note TGI for each molecule.
1. C=C[C@H]1CN2CCc3c([nH]c4cc(O)ccc34)[C@@H]2C[C@@H]1C[C@H]1c2[nH]c3ccccc3c2CCN1C
2. CC1=Nn2c(nnc2-c2ccccc2Cl)NC(C)(C)C1
3. O=C1/C(=C/c2ccc(Cl)cc2)CCC/C1=C\c1ccc(O)c(CN2CCCCC2)c1
4. O=C(/C=C/c1ccc(OCc2ccccc2)c(OCc2ccccc2)c1)OCc1ccccc1
5. Cc1cc2c(C(C)C)c(O)c(O)c(C=NCC3CCCN4CCCCC34)c2cc1-c1cc2c(C=NCC3CCCN4CCCCC34)c(O)c(O)c(C(C)C)c2cc1C (stereo unspecified)
6. CC12CC[C@@H]3c4cc5c(cc4CC[C@H]3[C@@H]1CCC2O)oc1cc(F)ccc15 (stereo partly specified)
7. O=S(=O)(Cc1nc2ccccc2s1)c1nc2ccccc2s1
8. CCOC(=O)/C=C\[C@H]1OC(C)(C)O[C@H]1[C@H](O)[C@H]1COC(C)(C)O1

Result:
1. 12.4 µM
2. > 100 µM
3. 69.4 µM
4. > 100 µM
5. 20 µM
6. 40.6 µM
7. 39.9 µM
8. 40.5 µM

Please state TGI for every molecule in the list that follows.
1. Cc1ccc(S(=O)(=O)Oc2ccccc2-c2ccccc2)cc1
2. COC1OC(C)C(OC(=O)C(C)(C)C)C(OS(=O)(=O)c2ccc(C)cc2)C1OS(=O)(=O)c1ccc(C)cc1 (stereo unspecified)
3. O=C(/C=C/c1ccccc1O)C(c1ccccc1)c1ccccc1
4. Cn1c(=O)n2c(=O)n(C)c(=O)n2c1=O

Result:
> 100 µM
> 100 µM
> 100 µM
> 100 µM

Please look at the items below and tell me TGI for each one, in order.
1. COc1ccc(NC(=O)c2sc3nc(C)c(C(=O)/C=C/c4ccccc4)cc3c2N)cc1
2. CCCCCCC(C)c1ccc2c(c1)C(=O)c1nc3ccncc3c(=O)n1-2 (stereo unspecified)
3. COc1ccc(C2C(Cl)C(=O)N2NC(=O)c2ccccc2O)cc1 (stereo unspecified)
4. CCC(=O)Oc1cc(/C=C/C(=O)O[C@H]2C[C@H]3CN4CCc5c([nH]c6cc(OC)ccc56)[C@@H]4C[C@@H]3[C@@H](C(=O)OC)[C@@H]2OC)ccc1OC

Result:
["> 50 µM", "4.09 µM", "> 100 µM", "> 100 µM"]

Batch of 2 molecules: report TGI for each.
1. COc1ccc(O)cc1C=O
2. CC1(C)C(O)OC(O)C1(C)C (stereo unspecified)

Result:
1. > 100 µM
2. > 100 µM

----------
Tested on: SF-268 CNS
Assay: NCI tumour cell line growth inhibition, 48 h
measured-metric: TGI

CSC1(C)CC2C(CC1N1CCOCC1)C2(C)C (stereo not drawn)	> 100 µM

# return TGI for each item in the list
1. Clc1ccc(Cl)c(N=Nc2cc3c4c(c2)CCCN4CCC3)c1
2. CC(C)(C)C1CCC2c3c([nH]c4ccccc34)C3C(=O)N(c4ccc(C(=O)O)cc4)C(=O)C3C2C1 (stereo not drawn)

Result:
["> 10 µM", "28.4 µM"]

Recorded values, source PubChem BioAssay (NCI).
